- Subject of test: JAK1 (Homo sapiens)
- Sequence (P23458 whole entry): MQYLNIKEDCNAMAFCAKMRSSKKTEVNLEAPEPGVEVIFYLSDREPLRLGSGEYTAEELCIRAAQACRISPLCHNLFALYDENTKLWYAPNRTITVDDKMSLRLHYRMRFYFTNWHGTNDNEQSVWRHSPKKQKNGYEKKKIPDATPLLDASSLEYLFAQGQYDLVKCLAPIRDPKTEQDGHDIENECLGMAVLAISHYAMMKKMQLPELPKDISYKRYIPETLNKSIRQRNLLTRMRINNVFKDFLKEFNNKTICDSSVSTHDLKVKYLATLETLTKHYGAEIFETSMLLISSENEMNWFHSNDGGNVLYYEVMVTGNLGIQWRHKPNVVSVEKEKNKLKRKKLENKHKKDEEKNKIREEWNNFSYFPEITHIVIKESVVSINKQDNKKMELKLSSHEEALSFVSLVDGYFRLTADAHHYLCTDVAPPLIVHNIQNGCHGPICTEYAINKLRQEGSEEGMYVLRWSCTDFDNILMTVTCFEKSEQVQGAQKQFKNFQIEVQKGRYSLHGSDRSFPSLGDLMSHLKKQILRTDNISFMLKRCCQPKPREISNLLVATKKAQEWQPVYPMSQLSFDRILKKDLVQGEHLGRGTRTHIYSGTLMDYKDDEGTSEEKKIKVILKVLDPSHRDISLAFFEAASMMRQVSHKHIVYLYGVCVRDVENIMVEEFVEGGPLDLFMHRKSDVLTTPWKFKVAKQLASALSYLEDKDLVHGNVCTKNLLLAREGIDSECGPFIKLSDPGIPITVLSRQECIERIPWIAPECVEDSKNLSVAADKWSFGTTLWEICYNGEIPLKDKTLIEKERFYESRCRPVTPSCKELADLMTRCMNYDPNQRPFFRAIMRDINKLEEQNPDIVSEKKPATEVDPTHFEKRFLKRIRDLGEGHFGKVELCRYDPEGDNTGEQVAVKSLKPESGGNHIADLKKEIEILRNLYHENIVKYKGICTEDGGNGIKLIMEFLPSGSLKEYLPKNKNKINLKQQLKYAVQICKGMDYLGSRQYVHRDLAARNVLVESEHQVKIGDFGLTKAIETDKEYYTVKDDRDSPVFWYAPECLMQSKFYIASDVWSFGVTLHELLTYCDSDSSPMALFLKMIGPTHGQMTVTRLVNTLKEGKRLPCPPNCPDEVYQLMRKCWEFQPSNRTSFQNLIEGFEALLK
- Assay info: Biochemical potency on JAK1, TR-FRET (LANCE Ultra kinase assay)
- Test settings: ATP corresponding to Km; cell-free; read-out: JAK1 inhibitory activity (pIC50) (converted)
This section presents compounds with their documented IC50 values.

Some solved entries appear below for comparison.
compound="CCOC(=O)[C@@H]1C[C@@H]2CN(CCNC(=O)c3nn(-c4cc5c(cc4OC)NCCO5)c4cc(-c5cnn6cccnc56)ncc34)C[C@@H]2C1 [Example 32]" outcome_measure=IC50 meas_value="≤ 5.01 nM"
compound="COc1cc2c(cc1-n1nc(C(=O)NCCN3CCC(C(=O)OC4CCCC4)CC3)c3cnc(-c4cnn5cccnc45)cc31)OCCN2 [Example 12]" outcome_measure=IC50 meas_value="≤ 5.01 nM"
compound="COc1cc2c(cc1-n1nc(C(=O)OCC3CN(C)CCO3)c3cnc(-c4cnn5cccnc45)cc31)OCCN2 (stereo not shown) [Example 46]" outcome_measure=IC50 meas_value="≤ 5.01 nM"
compound="COc1cc2c(cc1-n1nc(C(=O)NCCN3CCC(C(=O)OCC4CCOCC4)CC3)c3cnc(-c4cnn5cccnc45)cc31)OCCN2 [Example 18]" outcome_measure=IC50 meas_value="≤ 5.01 nM"
compound="COc1cc2c(cc1-n1nc(C(=O)NCCN3CCC(C(=O)O[C@@H]4CCN(C)C4)CC3)c3cnc(-c4cnn5cccnc45)cc31)OCCN2 [Example 23]" outcome_measure=IC50 meas_value="≤ 5.01 nM"
compound="COc1cc2c(cc1-n1nc(C(=O)NCCN3CCC(C(=O)OCC(C)(C)O)CC3)c3cnc(-c4cnn5cccnc45)cc31)OCCN2 [Example 14]" outcome_measure=IC50 meas_value="≤ 5.01 nM"

For this compound ( COc1cc2c(cc1-n1nc(C(=O)NCCN3CCC(C(=O)OC4CCN(C)C4)CC3)c3cnc(-c4cnn5cccnc45)cc31)OCCN2 (stereo not shown) [Example 22] ), measured IC50 is 5.01 to 50.1 nM

Record CCSC(=O)C1CCN(CCNC(=O)c2nn(-c3cc4c(cc3OC)NCCO4)c3cc(-c4cnn5cccnc45)ncc23)CC1 [Example 59] , field IC50: ≤ 5.01 nM

Just so you know, measured IC50 for CCOC(=O)C1CCN(CCOC(=O)Nc2nn(-c3cc4c(cc3OC)NCCO4)c3cc(-c4cnn5cccnc45)ncc23)CC1 [Example 41] came out at ≤ 5.01 nM

Entry COc1cc2c(cc1-n1nc(C(=O)NCCN3CCC(C(=O)OC4CCN(C)CC4)CC3)c3cnc(-c4cnn5cccnc45)cc31)OCCN2 [Example 42] ; IC50 = ≤ 5.01 nM

Notebook: COc1cc2c(cc1-n1nc(C(=O)NCCN3CC[C@@H](C(=O)O[C@@H]4CCN(CCF)C4)C3)c3cnc(-c4cnn5cccnc45)cc31)OCCN2 [Example 55] , IC50 read as ≤ 5.01 nM

Note to self: IC50 recorded for CCOC(=O)C1CCCN(CCNC(=O)c2nn(-c3cc4c(cc3OC)NCCO4)c3cc(-c4cnn5cccnc45)ncc23)C1 (stereo not shown) [Example 27] was ≤ 5.01 nM

Record CCOC(=O)C1CCN(CCNC(=O)c2nn(-c3cc4c(cc3OC)NCCS4)c3cc(-c4cnn5cccnc45)ncc23)CC1 [Example 1] , field IC50: ≤ 5.01 nM
